Test: Pharmacokinetic test in rats
Format: in vivo, SD rats
Details: male, SD, rat, iv, i.v. 2.5 mg/kg, plasma
Below, each of the compounds is paired with its reported AUC(0-t) value.
Field: numeric (µg·h/mL). Do not append units.

compound: CCc1cc2ncc(CN3CCN(c4ccc(C(=O)NC5CCN(c6ccc7c(c6)C(=O)N(C6CCC(=O)NC6=O)C7=O)CC5)nc4)CC3)cc2[nH]c1=O (centres unmarked)
unit-descriptor: µg·h/mL
experimental-value: 31.2

Shifting focus to the compound that follows.
Data point: CCc1cc2ncc(CN3CC=C(c4ccc(C(=O)Nc5cnn(C6CCN(c7ccc8c(c7)C(=O)N(C7CCC(=O)NC7=O)C8=O)CC6)c5)nc4)CC3)cc2[nH]c1=O (centres unmarked) ; AUC(0-t) = 51.4

---

Test system: breast tumor cells MDA-MB-436
Assay: MDA-MB-436 cell activity test (CellTiter-Glo, 7 days)
Assay type: cell-based, human
Details: Homo sapiens, MDA-MB-436, 168 h, MDA-MB-436 cells, 7 days incubation; read-out: IC50 (nM), MDA-MB-436 cell inhibitory activity
quantity-measured: IC50 (nM)
All answers are understood in nM, so give the number only.

Before answering, review these 5 worked examples.
compound: CCc1cc2ncc(CN3CCN(c4ccc(C(=O)NC5CC(Oc6ccc7c(c6)C(=O)N(C6CCC(=O)NC6=O)C7=O)C5)nc4)CC3)cc2[nH]c1=O (centres unmarked)
quantity-measured: IC50
experimental-value: 33
//
compound: CCc1cc2ncc(CN3CC=C(c4ccc(C(=O)NC5CCN(c6ccc7c(c6)C(=O)N(C6CCC(=O)NC6=O)C7=O)CC5)nc4)CC3)cc2[nH]c1=O (centres unmarked)
quantity-measured: IC50
experimental-value: 101
//
compound: CCc1cc2ncc(CN3CCN(c4ccc(C(=O)N[C@H]5C[C@@H](Nc6ccc7c(c6)C(=O)N(C6CCC(=O)NC6=O)C7=O)C5)nc4)CC3)cc2[nH]c1=O (some centres unmarked)
quantity-measured: IC50
experimental-value: 23
//
compound: CCc1cc2ncc(CN3CCN(c4ccc(C(=O)NC5CCN(c6ccc7c(c6)C(=O)N(C6CCC(=O)NC6=O)C7=O)CC5)nc4)CC3)cc2[nH]c1=O (centres unmarked)
quantity-measured: IC50
experimental-value: 36
//
compound: CCc1cc2ncc(CN3CCN(c4ccc(C(=O)NC5CN(c6cccc7c6C(=O)N(C6CCC(=O)NC6=O)C7=O)C5)nc4)CC3)cc2[nH]c1=O (centres unmarked)
quantity-measured: IC50
experimental-value: 15

# IC50 measured on breast tumor cells MDA-MB-436 for item CCc1cc2ncc(CN3CCN(c4ccc(C(=O)N[C@H]5C[C@@H](Nc6cc7c(cc6F)C(=O)N(C6CCC(=O)NC6=O)C7=O)C5)nc4)CC3)cc2[nH]c1=O (some centres unmarked) = 11

Record "CCc1cc2ncc(CN3CCN(c4ccc(C(=O)NC5CCN(C(=O)CC67CC8C[C@H](C6)C[C@H](C8)C7)CC5)nc4)CC3)cc2[nH]c1=O" ; system breast tumor cells MDA-MB-436; IC50 = 44

Log: breast tumor cells MDA-MB-436, compound CCc1cc2ncc(CN3CCN(c4ccc(C(=O)NC5CN(c6cc7c(cc6F)C(=O)N(C6CCC(=O)NC6=O)C7=O)C5)nc4)CC3)cc2[nH]c1=O (centres unmarked) , IC50 = 61

Entry CCc1cc2ncc(CN3CCN(c4ccc(C(=O)N[C@H]5CCN(c6ccc7c(c6)C(=O)N(C6CCC(=O)NC6=O)C7=O)C5)nc4)CC3)cc2[nH]c1=O (some centres unmarked) : IC50 on breast tumor cells MDA-MB-436 = 25

---

Catalogue of AUC(0-t) values
Assay: Pharmacokinetic test in rats
Type: in vivo, SD rats
Conditions: male, SD, rat, po, i.g. 10 mg/kg, plasma
Description: 7.1 Experimental animals: male SD rats, about 220 g, 6-8 weeks old, 6 rats/compound, purchased from Chengdu Ddossy Experimental Animals Co., Ltd. 7.2 Experimental design: on the day of the experiment, 12 SD rats were randomly grouped according to their body weights. […] Before and after the administration, 0.15 mL of blood was taken from the orbit of the animals under isoflurane anesthesia and placed in an EDTAK2 centrifuge tube. […] The samples were analyzed quantitatively by LC-MS/MS.

Per the record, CCc1cc2ncc(CN3CC=C(c4ccc(C(=O)Nc5cnn(C6CCN(c7ccc8c(c7)C(=O)N(C7CCC(=O)NC7=O)C8=O)CC6)c5)nc4)CC3)cc2[nH]c1=O (centres unmarked) [Compound 58] has AUC(0-t) of 12800 ng·h/mL

Just so you know, measured AUC(0-t) for CCc1cc2ncc(CN3CCN(c4ccc(C(=O)NC5CCN(c6ccc7c(c6)C(=O)N(C6CCC(=O)NC6=O)C7=O)CC5)nc4)CC3)cc2[nH]c1=O (centres unmarked) [Compound 10] came out at 42900 ng·h/mL

---

Target: PARP1 (Homo sapiens (Human), UniProt P09874)
Sequence (P09874 whole entry): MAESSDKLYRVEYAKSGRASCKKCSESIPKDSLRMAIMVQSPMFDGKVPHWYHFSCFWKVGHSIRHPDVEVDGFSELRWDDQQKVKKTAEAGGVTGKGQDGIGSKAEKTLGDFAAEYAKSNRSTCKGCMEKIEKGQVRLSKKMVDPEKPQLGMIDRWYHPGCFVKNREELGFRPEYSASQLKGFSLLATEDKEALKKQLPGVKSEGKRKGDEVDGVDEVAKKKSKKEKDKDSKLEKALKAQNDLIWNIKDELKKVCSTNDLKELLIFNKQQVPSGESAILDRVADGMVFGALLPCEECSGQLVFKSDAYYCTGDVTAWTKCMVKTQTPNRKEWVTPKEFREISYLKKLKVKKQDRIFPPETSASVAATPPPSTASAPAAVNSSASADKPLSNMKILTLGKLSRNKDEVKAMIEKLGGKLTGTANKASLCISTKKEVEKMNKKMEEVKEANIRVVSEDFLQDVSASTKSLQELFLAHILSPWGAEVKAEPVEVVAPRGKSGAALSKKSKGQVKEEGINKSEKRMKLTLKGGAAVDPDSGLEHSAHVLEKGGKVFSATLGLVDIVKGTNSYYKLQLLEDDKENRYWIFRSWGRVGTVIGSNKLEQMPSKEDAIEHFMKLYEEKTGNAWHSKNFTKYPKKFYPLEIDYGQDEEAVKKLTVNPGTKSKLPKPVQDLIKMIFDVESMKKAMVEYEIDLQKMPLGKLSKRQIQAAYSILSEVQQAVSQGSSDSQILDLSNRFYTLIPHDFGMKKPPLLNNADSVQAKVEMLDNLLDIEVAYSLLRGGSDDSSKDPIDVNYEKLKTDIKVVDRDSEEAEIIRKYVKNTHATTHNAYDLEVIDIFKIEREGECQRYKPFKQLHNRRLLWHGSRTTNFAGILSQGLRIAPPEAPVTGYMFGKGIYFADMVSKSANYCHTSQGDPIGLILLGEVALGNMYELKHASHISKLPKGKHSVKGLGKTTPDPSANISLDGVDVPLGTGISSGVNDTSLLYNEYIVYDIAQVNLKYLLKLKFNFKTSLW
Experiment: PARP1 protein expression level in MDA-MB-436 cells
Assay type: cell-based
Details: 100 nM, 24 hours
Lab note: compare PARP1 degradation rate @ 100 nM with 80%, writing true if less and false if equal or more.

Worked set:
compound: CCc1cc2ncc(CN3CCN(c4ccc(C(=O)NC5CCC(Oc6ccc7c(c6)C(=O)N(C6CCC(=O)NC6=O)C7=O)CC5)nc4)CC3)cc2[nH]c1=O (stereo not shown)
answer-label: true
//
compound: CCc1cc2ncc(CN3CCN(c4ccc(C(=O)NC5CC6(C5)CN(c5ccc7c(c5)C(=O)N(C5CCC(=O)NC5=O)C7=O)C6)nc4)CC3)cc2[nH]c1=O (stereo not shown)
answer-label: true

Does this compound meet the criterion PARP1 degradation rate @ 100 nM < 80%? CCc1cc2ncc(CN3CCN(c4ccc(C(=O)NC5CCN(c6ccc7c(c6)CN(C6CCC(=O)NC6=O)C7=O)CC5)nc4)CC3)cc2[nH]c1=O (stereo not shown)
false

Answer whether the compound CCc1cc2ncc(CN3CCN(c4ccc(C(=O)NC5CCN(C6CN(c7cc8c(cc7F)C(=O)N(C7CCC(=O)NC7=O)C8=O)C6)CC5)nc4)CC3)cc2[nH]c1=O (stereo not shown) has PARP1 degradation rate @ 100 nM strictly less than 80%
false

---

System: breast tumor cells MDA-MB-436
Test: MDA-MB-436 cell activity test (CellTiter-Glo, 7 days)
Format: cell-based, human
Details: Homo sapiens, MDA-MB-436, MDA-MB-436 cells, 10 μM; read-out: Max inh. % 10 μM
Decision: inhibition at 10 µM compared against 90%; not below it gives TRUE, below it gives FALSE.

compound: CCc1cc2ncc(CN3CCN(c4ccc(C(=O)NC5CCN(C6CN(c7cc8c(cc7F)C(=O)N(C7CCC(=O)NC7=O)C8=O)C6)CC5)nc4)CC3)cc2[nH]c1=O (centres unmarked)
assay-target: breast tumor cells MDA-MB-436
answer-label: FALSE

Evaluate "CCc1cc2ncc(CN3CCN(c4ccc(C(=O)NC5CCN(CC6CCN(Cc7ccc(-n8c(O)nnc8-c8cc(C(C)C)c(O)cc8O)cc7)CC6)CC5)nc4)CC3)cc2[nH]c1=O" : inhibition at 10 µM at minimum 90%?
TRUE

Evaluate CCc1cc2ncc(CN3CCN(c4ccc(C(=O)NC5CC6(C5)CN(c5ccc7c(c5)C(=O)N(C5CCC(=O)NC5=O)C7=O)C6)nc4)CC3)cc2[nH]c1=O (centres unmarked) : inhibition at 10 µM at minimum 90%?
TRUE

---

Molecular target: PARP7 (Homo sapiens (Human))
Sequence (Q7Z3E1 whole entry): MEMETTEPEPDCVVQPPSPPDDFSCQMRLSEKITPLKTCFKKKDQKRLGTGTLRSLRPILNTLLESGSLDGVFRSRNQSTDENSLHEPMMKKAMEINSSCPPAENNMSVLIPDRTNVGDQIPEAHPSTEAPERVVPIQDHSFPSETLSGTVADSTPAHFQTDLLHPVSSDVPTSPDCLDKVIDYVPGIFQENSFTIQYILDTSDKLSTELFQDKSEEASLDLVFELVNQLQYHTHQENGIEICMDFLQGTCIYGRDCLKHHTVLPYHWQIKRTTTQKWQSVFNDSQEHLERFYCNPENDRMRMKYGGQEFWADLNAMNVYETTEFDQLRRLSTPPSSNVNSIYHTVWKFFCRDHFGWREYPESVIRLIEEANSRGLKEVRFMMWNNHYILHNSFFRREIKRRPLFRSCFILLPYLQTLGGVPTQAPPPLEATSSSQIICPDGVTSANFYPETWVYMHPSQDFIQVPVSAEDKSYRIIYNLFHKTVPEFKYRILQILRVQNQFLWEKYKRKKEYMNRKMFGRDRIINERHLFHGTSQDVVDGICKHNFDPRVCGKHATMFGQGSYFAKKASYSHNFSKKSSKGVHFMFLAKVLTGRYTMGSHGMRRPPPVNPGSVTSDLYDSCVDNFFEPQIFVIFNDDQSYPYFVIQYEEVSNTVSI
Experiment: PARP7 enzyme activity inhibition (chemiluminescence kit)
Type: biochemical
Description: PARP1, PARP2 and PARP7 chemical […] detection kits were all purchased from BPS Bioscience. […] ELISA ECL substrate A and substrate B were mixed at a ratio of 1:1 (v/v), 25 μL of the mixture was added to the microwell plate, and the chemiluminescence value was read using a BMG microplate reader. Curve fitting was performed by four parameters (log(inhibitor) vs. response−Variable slope) using GraphPad Prism software, and the IC50 value was calculated.
quantity-measured: IC50
Reply with the number, then its unit.

Param item: CCc1cc2ncc(CN3CCN(c4ccc(C(=O)NC5CCN(c6ccc7c(c6)C(=O)N(C6CCC(=O)NC6=O)C7=O)CC5)nc4)CC3)cc2[nH]c1=O (stereo not shown) [Compound 10] ; param system: PARP7 (Homo sapiens (Human)); output IC50: 91 nM

---

Test system: breast tumor cells MDA-MB-436
Experiment: MDA-MB-436 cell activity test (CellTiter-Glo, 7 days)
Type: cell-based, human
Settings: Homo sapiens, MDA-MB-436, MDA-MB-436 cells, 10 μM; read-out: Max inh. % 10 μM
Recorded inhibition at 10 µM values for a group of compounds are listed next.
Answer format: number, then unit.

Worked set:
compound: CCc1cc2ncc(CN3CCN(c4ccc(C(=O)N[C@H]5C[C@H](Oc6ccc7c(c6)C(=O)N(C6CCC(=O)NC6=O)C7=O)C5)nc4)CC3)cc2[nH]c1=O (stereo partly drawn) [Compound 59]
assay-target: breast tumor cells MDA-MB-436
inhibition at 10 µM: 81.7%

compound: CCc1cc2ncc(CN3CC=C(c4ccc(C(=O)NC5CCN(c6ccc7c(c6)C(=O)N(C6CCC(=O)NC6=O)C7=O)CC5)nc4)CC3)cc2[nH]c1=O (stereo not drawn) [Compound 49]
assay-target: breast tumor cells MDA-MB-436
inhibition at 10 µM: 93.8%

compound: CCc1cc2ncc(CN3CCN(c4ccc(C(=O)N[C@H]5C[C@@H](Nc6cc7c(cc6F)C(=O)N(C6CCC(=O)NC6=O)C7=O)C5)nc4)CC3)cc2[nH]c1=O (stereo partly drawn) [Compound 41]
assay-target: breast tumor cells MDA-MB-436
inhibition at 10 µM: 85.7%

compound: CCc1cc2ncc(CN3CC=C(c4ccc(C(=O)NC5CCN(c6cccc(N7CCC(=O)NC7=O)c6)CC5)nc4)CC3)cc2[nH]c1=O [Compound 63]
assay-target: breast tumor cells MDA-MB-436
inhibition at 10 µM: 83.1%

compound: CCc1cc2ncc(CN3CCN(c4ccc(C(=O)NC5CCN(c6cccc7c6C(=O)N(C6CCC(=O)NC6=O)C7=O)CC5)nc4)CC3)cc2[nH]c1=O (stereo not drawn) [Compound 19]
assay-target: breast tumor cells MDA-MB-436
inhibition at 10 µM: 90.3%

Now for the compound whose inhibition at 10 µM we want.
Noted for CCc1cc2ncc(CN3CCN(c4ccc(C(=O)NC5CCN(c6cccc(N7CCC(=O)NC7=O)c6)CC5)nc4)CC3)cc2[nH]c1=O [Compound 62] : its inhibition at 10 µM reads 82.9%
